Tested on: UACC-257
Assay: NCI-60 one-dose screening
Assay type: cell-based
Details: Homo sapiens, UACC-257, Melanoma, read-out: GI (%)
endpoint.name: inhibition at 10 µM (%)
Express your answer in %, writing the number without its unit.

The examples below pair each entry with its known result.
>  <molecule>
COc1cc(C=C2C(=O)Nc3ccccc32)ccc1OCc1ccccc1 (mixture of isomers)

>  <inhibition at 10 µM, %>
-21.2

$$$$
>  <molecule>
COc1cc(C=C2C(=O)Nc3cc(Cl)ccc32)ccc1OCc1ccc(Cl)cc1 (mixture of isomers)

>  <inhibition at 10 µM, %>
-8.7

$$$$
>  <molecule>
COc1cc(/C=C2/C(=O)Nc3ccccc32)ccc1OCc1ccc(Cl)cc1

>  <inhibition at 10 µM, %>
-24.7

$$$$
>  <molecule>
COc1ccc(COc2ccc(/C=C3/C(=O)Nc4ccccc43)cc2OC)cc1

>  <inhibition at 10 µM, %>
-15.9

$$$$
>  <molecule>
COc1cc(/C=C2/C(=O)Nc3cc(Cl)ccc32)ccc1OCc1ccc(F)cc1

>  <inhibition at 10 µM, %>
-9.31

$$$$
>  <molecule>
COc1cc(C=C2C(=O)Nc3ccc(Cl)cc32)ccc1OCc1ccccn1 (mixture of isomers)

>  <inhibition at 10 µM, %>
-5.04

$$$$

[in] Need inhibition at 10 µM of COc1cc(/C=C2/C(=O)Nc3ccccc32)ccc1OCc1ccc(F)cc1 , thanks.
[out] -18.2

[in] Need inhibition at 10 µM of COc1cc(/C=C2/C(=O)Nc3cc(Cl)ccc32)ccc1OCc1ccccn1 , thanks.
[out] -22.8

[in] Need inhibition at 10 µM of COc1cc(C=C2C(=O)Nc3ccccc32)ccc1OCc1ccccn1 (mixture of isomers) , thanks.
[out] -10.9

====

Tested on: SN12C
Test: NCI-60 one-dose screening
Format: cell-based
Settings: Homo sapiens, Renal Cancer, read-out: GI (%)
endpoint.name: inhibition at 10 µM (%)
Express your answer in %, writing the number without its unit.

The examples below pair each entry with its known result.
>  <compound>
COc1cc(/C=C2/C(=O)Nc3ccccc32)ccc1OCc1ccc(F)cc1

>  <inhibition at 10 µM / %>
0.05

$$$$
>  <compound>
COc1cc(/C=C2/C(=O)Nc3cc(Cl)ccc32)ccc1OCc1ccccn1

>  <inhibition at 10 µM / %>
-4.12

$$$$
>  <compound>
COc1ccc(COc2ccc(/C=C3/C(=O)Nc4ccc(Cl)cc43)cc2OC)cc1

>  <inhibition at 10 µM / %>
1.92

$$$$

[in] Need inhibition at 10 µM of COc1cc(/C=C2/C(=O)Nc3cc(Cl)ccc32)ccc1OCc1ccccc1 , thanks.
[out] 3.34

[in] Need inhibition at 10 µM of COc1cc(C=C2C(=O)Nc3ccccc32)ccc1OCc1ccccc1 (mixture of isomers) , thanks.
[out] 3.52

[in] Need inhibition at 10 µM of COc1cc(C=C2C(=O)Nc3ccccc32)ccc1O (mixture of isomers) , thanks.
[out] 16
